Test system: HCC-2998 colon
protocol text: NCI tumour cell line growth inhibition, 48 h
readout type: TGI

Problem: Provide TGI, system HCC-2998 colon, entry CSc1nc2c(c(=O)[nH]1)N=C1c3ccccc3C(=O)C1C(c1ccccc1)N2 (stereo not given)
Solution: > 100 µM

----------
System: SF-268 CNS
protocol text: NCI tumour cell line growth inhibition, 48 h
Where a SMILES comes first, the peptide text is derived from it. [ ]: non-standard residue; d: D form. The star is where a group is joined. ξ: configuration not given here. X6 = FC(F)(F)c1cc(NC(=S)*)cc(C(F)(F)F)c1; ξF = NC(Cc1ccccc1)C(=O)O
readout type: TGI

Here is how some molecules turned out for TGI.
COc1ccc(/C=C2\CCC(C)C3=C2NC(=S)NC3c2ccc(OC)c(OC)c2)cc1OC (stereo not drawn) : > 31.6 µM
Nc1cccc2cc(Cl)cnc12 : > 100 µM
CCOC(=O)c1c2ccccc2n2c(N)c(C(N)=O)nnc12 : 56.3 µM
FC(F)(F)c1cc(Cl)cnc1N/N=C(/c1ccccc1)c1ccccn1 : 11.3 µM
O=C(O)CN(CC(=O)O)C1CCCCC1N(CC(=O)O)CC(=O)NCCN=C=S (stereo not drawn) : > 100 µM
COC(=O)[C@@H](NC(=O)CNC(=O)[C@H]1CCCN1C(=O)C(Cc1ccccc1)NC(=S)Nc1cc(C(F)(F)F)cc(C(F)(F)F)c1)C(C)C (stereo partly drawn) (X6-[ξF][dP]GV-OMe) : 10.7 µM
CSc1nc2c(c(=O)[nH]1)N=C1c3ccccc3C(=O)C1C(c1ccccc1)N2 (stereo not drawn) : > 100 µM
CC(=O)Nc1ccc(-c2nnc(SCC(=O)Nc3ccc([N+](=O)[O-])cc3)o2)cc1 : 27.7 µM
O=C(NNC(=O)c1ccccc1SSc1ccccc1C(=O)NNC(=O)c1ccccc1S)c1ccccc1S : > 52.5 µM
CCC(CO)Nc1nc2ccc(Cl)cc2c2ccccc12 (stereo not drawn) : 23.4 µM

Problem: Using known records, supply TGI for COC1CCC2C(NS(=O)(=O)c3ccc(C)cc3)CCCC2O1 (stereo not drawn) (tested in a mixture with another compound)
Solution: > 34.5 µM

Problem: Please indicate TGI recorded for COC(=O)[C@H](Cc1c[nH]c2ccccc12)NP(=O)(O)OCC1C=CC(n2cc(C)c(=O)[nH]c2=O)O1 (stereo partly drawn)
Solution: > 100 µM

Problem: Look up and state reported TGI for CC12CCC(O)CC1CCC1C2CCC2(C)C(C3=CC(=O)OC3)CCC12O (stereo not drawn)
Solution: 7.07 µM

Problem: Output TGI of COc1cc(/C=N/NC(=O)c2ccc(C(F)(F)F)nc2Nc2ccc(Cl)cc2C)ccc1O
Solution: 13.3 µM

----------
Tested on: RPMI-8226 leukemia
protocol text: NCI tumour cell line growth inhibition, 48 h
readout type: TGI

COc1ccc2c(=O)c(O)c(-c3ccc(OC)c(OC)c3)oc2c1 : > 100 µM
CCC[C@@H](O)C[C@@H]1CCC[C@H](C[C@@H](O)CC)N1C : > 100 µM
CCOC(=O)C(NC(C)=O)(Nc1ccc(F)cc1)C(F)(F)F (centres undefined) : > 100 µM

Problem: Output measured TGI for this item: CC1(C)CCc2c(c3c(c4c(=O)c(O)c(-c5ccc(O)cc5)oc24)OC(C)(C)CC3)O1
Solution: > 100 µM

Problem: Tell me measured TGI for NC(Cc1c[nH]c2c(O)cccc12)C(=O)O (centres undefined) please.
Solution: > 100 µM

Problem: Fill in reported TGI for this entry: O=C1/C(=C/c2ccccc2)CN(C(=O)C(Cl)(Cl)Cl)C/C1=C\c1ccccc1
Solution: 0.314 µM

Problem: Supply TGI value. Item: c1ccc(N=C2SC3=Nc4cccc5cccc(c45)N3C2=Nc2ccccc2)cc1
Solution: > 100 µM

Problem: Give TGI for the following molecule: O=C(COc1ccc(Br)cc1Br)N1N=C(c2ccc([N+](=O)[O-])o2)CC1(O)c1ccccc1 (centres undefined)
Solution: 8.96 µM

Problem: State its TGI: O=C(Nc1ccccc1)NS(=O)(=O)c1ccc(-n2nc3c(c2-c2cccs2)Cc2ccccc2-3)cc1
Solution: 66.4 µM
